Quick reference for binding signal among some sequences
Target: GST-Rok (full length) (Bacillus subtilis subsp. subtilis str. …, UniProt O34857 1-191)
Sequence: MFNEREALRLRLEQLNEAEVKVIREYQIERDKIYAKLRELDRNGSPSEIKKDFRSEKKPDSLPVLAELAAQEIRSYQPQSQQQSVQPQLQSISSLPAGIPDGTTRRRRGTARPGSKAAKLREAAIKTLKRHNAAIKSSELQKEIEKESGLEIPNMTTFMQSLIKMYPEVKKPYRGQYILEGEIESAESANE
Test: protein binding microarray; high values mean tight binding
Conditions: protein: recombinant; tags: GST (pTH5325, pDEST15-Magic modified); dsDNA, one strand shown
Over roughly 33,000 sequences, “e-score” has its median near -0.037; the highest 2% begin near 0.34. The entries come from a sample that favours the highest values as a whole.
Entry rule: numbers only, all in E-score.

# residueCodes, binding signal / E-score
data = [
    ("AAAAAGTT", 0.0934),
]

Ask: Let me know recorded binding signal for ATTCGCAC , thanks.
Result: -0.0552

Ask: Let me know recorded binding signal for AATTTGGT , thanks.
Result: 0.177

Ask: Let me know recorded binding signal for AGCGGCTC , thanks.
Result: -0.196

Ask: Let me know recorded binding signal for TGATATAA , thanks.
Result: 0.371

Ask: Let me know recorded binding signal for CATCAGGC , thanks.
Result: -0.154

Ask: Let me know recorded binding signal for ATAAACTG , thanks.
Result: 0.175

Ask: Let me know recorded binding signal for GAAGGTTA , thanks.
Result: -0.0133

Ask: Let me know recorded binding signal for CCAAATAG , thanks.
Result: -0.0889

Ask: Let me know recorded binding signal for ATAGATAT , thanks.
Result: 0.374

Ask: Let me know recorded binding signal for CGAGATAG , thanks.
Result: 0.0866

Ask: Let me know recorded binding signal for CGACTATA , thanks.
Result: 0.151

Ask: Let me know recorded binding signal for ATAAACTC , thanks.
Result: 0.15

Ask: Let me know recorded binding signal for ATAGAATA , thanks.
Result: 0.356

Ask: Let me know recorded binding signal for CGATATAC , thanks.
Result: 0.239

Ask: Let me know recorded binding signal for AACAACTT , thanks.
Result: 0.174

----------
Target: GST-Rok (full length) (Bacillus subtilis subsp. subtilis str. …, UniProt O34857 1-191)
Sequence: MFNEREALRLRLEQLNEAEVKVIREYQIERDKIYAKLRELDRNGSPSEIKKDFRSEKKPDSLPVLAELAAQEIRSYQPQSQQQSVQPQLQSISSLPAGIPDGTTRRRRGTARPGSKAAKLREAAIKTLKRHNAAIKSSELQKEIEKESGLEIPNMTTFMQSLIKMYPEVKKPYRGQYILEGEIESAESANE
Assay: protein binding microarray; Rok is a gene silencer of Bacillus subtilis; high values mean tight binding
Conditions: protein: recombinant; tags: GST (pTH5325, pDEST15-Magic modified); dsDNA, one strand shown
Over roughly 33,000 sequences, “e-score” has its median near -0.037; the highest 2% begin near 0.34. The list comes from a sample in which the highest values are over-represented; it also holds close analogues and randomly drawn sequences.
assayMetric: binding signal

Previously resolved entries follow.
# residueCodes, binding signal
measured = [
    ("AATAAGAA", "0.209 E-score"),
    ("ACTATTAG", "0.244 E-score"),
    ("ATAAACTA", "0.361 E-score"),
    ("CTAGCGTC", "-0.0555 E-score"),
    ("AGGGAATC", "0.0103 E-score"),
    ("GAATGGCC", "-0.15 E-score"),
    ("AGTATTAT", "0.358 E-score"),
    ("CGGCGGTC", "-0.184 E-score"),
    ("ATCGAAAA", "0.0373 E-score"),
    ("ACTACTAT", "0.465 E-score"),
]

Ask: Let me know recorded binding signal for AACTACAT , thanks.
Result: 0.419 E-score

Ask: Let me know recorded binding signal for ACAACTAT , thanks.
Result: 0.33 E-score

Ask: Let me know recorded binding signal for ATCGATAG , thanks.
Result: 0.361 E-score

Ask: Let me know recorded binding signal for CTAAACTA , thanks.
Result: 0.336 E-score

Ask: Let me know recorded binding signal for TCACGTGA , thanks.
Result: -0.0446 E-score

Ask: Let me know recorded binding signal for GTAGAAAA , thanks.
Result: 0.387 E-score

Ask: Let me know recorded binding signal for CGATATAG , thanks.
Result: 0.191 E-score

Ask: Let me know recorded binding signal for ATAGAAAA , thanks.
Result: 0.324 E-score
